Test system: Pseudomonas aeruginosa
Assay: Antibacterial activity against Pseudomonas aeruginosa ATCC 27853 after 24 hrs by two-fold serial dilution method
Type: functional
Details: ATCC 27853, 24 h
property-measured: MIC
Report field: quantity (unit follows the number).

Summary for this molecule, Clc1ccc(NCc2nc3ccccc3[nH]2)cc1 : MIC is 128 µg/mL

Summary for this molecule, Cc1ccc(N(Cc2nc3ccccc3[nH]2)Cc2ccc(F)cc2F)cc1 : MIC is 32 µg/mL

Summary for this molecule, Ic1ccc(NCc2nc3ccccc3[nH]2)cc1 : MIC is 128 µg/mL

Summary for this molecule, Cc1ccc(N(Cc2cccc(Cl)c2)Cc2nc3ccccc3[nH]2)cc1 : MIC is 32 µg/mL

Summary for this molecule, Cc1ccc(N(Cc2nc3ccccc3[nH]2)Cc2ccccc2Cl)cc1 : MIC is 32 µg/mL

Summary for this molecule, CCCCCCCCCCCCN(Cc1nc2ccccc2[nH]1)c1ccc(C)cc1 : MIC is 128 µg/mL
